Biological target: Stb4 (UniProt P50104)
Sequence (P50104 whole entry): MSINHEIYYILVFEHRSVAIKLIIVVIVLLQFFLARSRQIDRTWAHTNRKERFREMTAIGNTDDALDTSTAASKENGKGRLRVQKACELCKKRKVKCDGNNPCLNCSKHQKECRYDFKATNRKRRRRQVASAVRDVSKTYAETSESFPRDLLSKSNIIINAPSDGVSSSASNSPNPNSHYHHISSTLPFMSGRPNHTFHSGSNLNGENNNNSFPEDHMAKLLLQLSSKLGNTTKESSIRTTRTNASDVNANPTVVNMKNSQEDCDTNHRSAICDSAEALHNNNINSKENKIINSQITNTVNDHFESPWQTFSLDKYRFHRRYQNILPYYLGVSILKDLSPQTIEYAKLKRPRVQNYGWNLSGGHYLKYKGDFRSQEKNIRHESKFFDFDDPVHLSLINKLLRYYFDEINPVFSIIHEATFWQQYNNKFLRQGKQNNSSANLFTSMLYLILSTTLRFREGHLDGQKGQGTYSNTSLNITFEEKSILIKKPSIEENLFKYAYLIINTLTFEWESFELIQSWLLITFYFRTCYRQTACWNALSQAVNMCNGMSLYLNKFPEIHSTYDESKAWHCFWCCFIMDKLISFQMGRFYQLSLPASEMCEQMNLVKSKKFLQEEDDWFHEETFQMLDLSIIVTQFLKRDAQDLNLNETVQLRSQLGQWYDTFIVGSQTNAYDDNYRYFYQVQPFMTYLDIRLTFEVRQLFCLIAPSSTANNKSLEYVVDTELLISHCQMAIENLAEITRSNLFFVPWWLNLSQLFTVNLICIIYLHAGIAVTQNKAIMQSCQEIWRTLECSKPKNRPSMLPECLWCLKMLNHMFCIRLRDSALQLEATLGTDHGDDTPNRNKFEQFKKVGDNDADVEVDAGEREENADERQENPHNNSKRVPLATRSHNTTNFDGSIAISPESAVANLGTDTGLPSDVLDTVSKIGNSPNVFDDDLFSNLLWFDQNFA
Assay: PBM E-score (8-mer binding enrichment) (E-score (-0.5 to 0.5)); higher = stronger / more preferred TF binding
Details: protein concentration: 200 nM; construct: GST-DNA-binding domain
Over roughly 33,000 sequences, “E-score (-0.5 to 0.5)” has its median near -0.056; the highest 2% begin near 0.38. This is one part of a sample in which the highest values are shown more often than they occur.
parameter_measured: PBM E-score
Field format: numeric only.

[[record]]
sequence_input = "GATCCGTA"
target_under_test = "Stb4 (UniProt P50104)"
parameter_measured = "PBM E-score"
measured_result = 0.351

[[record]]
sequence_input = "AATCCGCA"
target_under_test = "Stb4 (UniProt P50104)"
parameter_measured = "PBM E-score"
measured_result = 0.157

[[record]]
sequence_input = "TATCCGCA"
target_under_test = "Stb4 (UniProt P50104)"
parameter_measured = "PBM E-score"
measured_result = 0.408

[[record]]
sequence_input = "CATCCTAA"
target_under_test = "Stb4 (UniProt P50104)"
parameter_measured = "PBM E-score"
measured_result = -0.079


input: Item under review: GATCCAAA . Reported PBM E-score?
output: -0.0151

input: Now the same for CATCCGAA
output: 0.476

input: Entry to check: GATCCGAA
output: 0.482

input: Lookup CATCCAAA
output: -0.2

input: Then what about the sequence CATCCGCA ?
output: 0.314

input: Same again, this time with TATCCGAA
output: 0.493

input: Another sequence to check: TATCCAAA
output: -0.184

---

Measured PBM E-score, listed per entry for reference.
Biological target: Stb4 (UniProt P50104)
Assay: PBM E-score (8-mer binding enrichment) (E-score (-0.5 to 0.5)); higher = stronger / more preferred TF binding
Settings: protein concentration: 200 nM; construct: GST-DNA-binding domain
The full ranking holds about 33,000 sequences; the median of “E-score (-0.5 to 0.5)” is about -0.056, and the highest 2% start at about 0.38. Only a selection was taken, and the highest values are over-represented in it overall.
Give the figure only, with no unit attached.

input: # PBM E-score lookup, item CGAGCACC
output: 0.204

---

Target: Stb4 (UniProt P50104)
Assay: PBM E-score (8-mer binding enrichment) (E-score (-0.5 to 0.5)); higher = stronger / more preferred TF binding
Conditions: protein concentration: 200 nM; construct: GST-DNA-binding domain
The full ranking holds about 33,000 sequences; the median of “E-score (-0.5 to 0.5)” is about -0.056, and the highest 2% start at about 0.38. Many of the other results were omitted from the sample, so the highest values are more common in it than they were.
Label 1 (yes) when PBM E-score is at or above 0.1; otherwise label 0 (no).

Field: example entries. Status: answers known.
[[record]]
sequence_input = "CATATGAC"
answer_label = "0 (no)"

[[record]]
sequence_input = "TCTCCGCA"
answer_label = "1 (yes)"

[[record]]
sequence_input = "CACAGTGG"
answer_label = "0 (no)"

[[record]]
sequence_input = "GGTGCCCA"
answer_label = "0 (no)"

[[record]]
sequence_input = "GCATCTCA"
answer_label = "0 (no)"

[[record]]
sequence_input = "ACTCGGTC"
answer_label = "1 (yes)"

[[record]]
sequence_input = "ATCTCTAA"
answer_label = "0 (no)"

[[record]]
sequence_input = "CATAACCC"
answer_label = "0 (no)"


# evaluate next
input: Given the entry AAATCTAT , answer whether its PBM E-score meets or surpasses 0.1.
output: 0 (no)

---

Target: Stb4 (UniProt P50104)
Test: PBM E-score (8-mer binding enrichment) (E-score (-0.5 to 0.5)); higher = stronger / more preferred TF binding
Conditions: protein concentration: 200 nM; construct: GST-DNA-binding domain
The full ranking holds about 33,000 sequences; the median of “E-score (-0.5 to 0.5)” is about -0.056, and the highest 2% start at about 0.38. What follows is part of a selection rich in the highest values, with near analogues and random picks from the rest.
The label depends only on PBM E-score: Y if it is at least 0.2, N if it is smaller.

Past entries and their recorded results:
[[record]]
sequence_input = "GCTAGACC"
answer_label = "N"

[[record]]
sequence_input = "GAGCCGAA"
answer_label = "Y"

[[record]]
sequence_input = "ACCGGACT"
answer_label = "Y"

[[record]]
sequence_input = "GACCTGCC"
answer_label = "N"


input: Textbook exercise: given the entry CCGCTTTA , state whether its PBM E-score is greater than or equal to 0.2.
output: N

input: Consider next the sequence TAGCCAAA in the same way.
output: N

input: // next record CAGCCGAG
output: Y

---

Target: Stb4 (UniProt P50104)
Assay: PBM E-score (8-mer binding enrichment) (E-score (-0.5 to 0.5)); higher = stronger / more preferred TF binding
Conditions: protein concentration: 200 nM; construct: GST-DNA-binding domain
In all, about 33,000 sequences were measured (“E-score (-0.5 to 0.5)”: median about -0.056, highest 2% from about 0.38 on). This is one part of a sample in which the highest values are shown more often than they occur.
Parameter PBM E-score: see the listing below.

Solved entries (count: 4):
[[record]]
sequence_input = "TTCCACAA"
parameter_measured = "PBM E-score"
measured_result = 0.0123

[[record]]
sequence_input = "CTTCGGGC"
parameter_measured = "PBM E-score"
measured_result = 0.291

[[record]]
sequence_input = "GATCGGGA"
parameter_measured = "PBM E-score"
measured_result = 0.359

[[record]]
sequence_input = "AAAGCGTC"
parameter_measured = "PBM E-score"
measured_result = -0.194


input: Data request, read-out PBM E-score, for AAGCCGCA
output: 0.167

input: What do you get for ATGTGCCC ?
output: -0.048

input: Do the same for GTCAGGCA please
output: -0.118

input: Check AATTTCGA too.
output: -0.152

input: Please do the same for AAACCCGT as well.
output: -0.00663

---

Reported PBM E-score values for a set of sequences
Molecular target: Stb4 (UniProt P50104)
Test: PBM E-score (8-mer binding enrichment) (E-score (-0.5 to 0.5)); higher = stronger / more preferred TF binding
Details: protein concentration: 200 nM; construct: GST-DNA-binding domain
Whole data set: some 33,000 sequences, median “E-score (-0.5 to 0.5)” near -0.056, cut for the highest 2% near 0.38. Shown is part of a subset that was picked to be rich in the highest values.
Give only the figure.

Reference set, count: 6
[[record]]
sequence_input = "AGTCCGGC"
parameter_measured = "PBM E-score"
measured_result = 0.0945

[[record]]
sequence_input = "GCTGACGA"
parameter_measured = "PBM E-score"
measured_result = -0.346

[[record]]
sequence_input = "ATCGCCCG"
parameter_measured = "PBM E-score"
measured_result = 0.152

[[record]]
sequence_input = "CGGTCGGA"
parameter_measured = "PBM E-score"
measured_result = 0.388

[[record]]
sequence_input = "ATGGGTGG"
parameter_measured = "PBM E-score"
measured_result = -0.0789

[[record]]
sequence_input = "GGGTCGGA"
parameter_measured = "PBM E-score"
measured_result = 0.392


input: # value lookup — system Stb4 (UniProt P50104), readout PBM E-score, item TATCCCAA
output: 0.0571

input: Same read-out for TAAAACAA ?
output: -0.199

input: Cool, now CCCGGACA
output: 0.264

input: Then what about the sequence CAAATGCG ?
output: -0.127

input: For CGGTCGTA then?
output: 0.128

input: Subsequent entry: GATCCCGA
output: 0.417

input: Another sequence to look at: GGGTCGAA
output: 0.0324

input: Same again, this time with TAGGAAGA
output: -0.21

input: Likewise for CGTCTGCA ?
output: -0.122

input: Field entry: GATCCCGC
output: 0.225

---

Documented PBM E-score across a set of sequences
Molecular target: Stb4 (UniProt P50104)
Experiment: PBM E-score (8-mer binding enrichment) (E-score (-0.5 to 0.5)); higher = stronger / more preferred TF binding
Settings: protein concentration: 200 nM; construct: GST-DNA-binding domain
Over roughly 33,000 sequences, “E-score (-0.5 to 0.5)” has its median near -0.056; the highest 2% begin near 0.38. The full list was thinned out, with the highest values kept by preference.

Observe how each entry below is paired with its result.
[[record]]
sequence_input = "AGGAACTC"
parameter_measured = "PBM E-score"
measured_result = -0.0879

[[record]]
sequence_input = "CATTCGTA"
parameter_measured = "PBM E-score"
measured_result = -0.194

[[record]]
sequence_input = "ACTCTCGG"
parameter_measured = "PBM E-score"
measured_result = 0.416

[[record]]
sequence_input = "CCGAACGG"
parameter_measured = "PBM E-score"
measured_result = 0.413

[[record]]
sequence_input = "CGGCGATA"
parameter_measured = "PBM E-score"
measured_result = 0.277

[[record]]
sequence_input = "ACTACCCA"
parameter_measured = "PBM E-score"
measured_result = -0.261

[[record]]
sequence_input = "ACTACCCC"
parameter_measured = "PBM E-score"
measured_result = -0.0517

[[record]]
sequence_input = "AACACCCG"
parameter_measured = "PBM E-score"
measured_result = 0.4


input: // query PBM E-score value for entry CATTCGGA
output: 0.383

input: Another sequence to check: AGCCTAGG
output: -0.0301

input: Param item: CATTCGGG
output: 0.343

input: Now the same for CTGAACTC
output: -0.175

input: Proceed to CCGAGCAA
output: 0.406
